# test_system: UniProt P16234
assay_metric: IC50 (nM)
Entry rule: numbers only, all in nM.

With UniProt P16234 as the test system, C#CCOc1ccc(Nc2ncc(Cl)c(Nc3ccccc3NC(=O)C=C)n2)c(OC)c1 showed IC50 of 794

* * *

Relative phosphorylation (% of highest signal) overview
# test_system: SYK (Homo sapiens)
# test_summary: PamChip microarray peptide phosphorylation
# experimental_setup: peptide substrate phosphorylated by SYK

Study these solved cases before continuing.
| substance | test_result |
| --- | --- |
| NTRK2_509_521 (PVIENPQYFGITN; UniProt Q16620 509-521, looked up, fragment) | 0.0821 % of highest signal |
| STAT1_694_706 (DGPKGTGYIKTEL; UniProt P42224 694-706, looked up, fragment) | -1.9 % of highest signal |
| EPOR_361_373 (SEHAQDTYLVLDK; UniProt P19235 361-373, looked up, fragment) | 12.7 % of highest signal |
| EPHA4_921_933 (QAIKMDRYKDNFT; UniProt P54764 921-933, looked up, fragment) | -0.4 % of highest signal |
| VGFR2_1046_1058 (DFGLARDIYKDPD; UniProt P35968 1046-1058, looked up, fragment) | 0.6 % of highest signal |

With SYK (Homo sapiens) as the test system, MBP_259_271 (FGYGGRASDYKSA; UniProt P02686 259-271, looked up, fragment) showed Relative phosphorylation (% of highest signal) of 0.9 % of highest signal

With SYK (Homo sapiens) as the test system, EFS_246_258_Y253F (GGTDEGIFDVPLL; UniProt O43281 246-258, looked up, fragment Y253F) showed Relative phosphorylation (% of highest signal) of -1.2 % of highest signal

With SYK (Homo sapiens) as the test system, NPT2A_501_513 (AKALGKRTAKYRW; UniProt Q06495 501-513, looked up, fragment) showed Relative phosphorylation (% of highest signal) of -0.846 % of highest signal

With SYK (Homo sapiens) as the test system, EPHA2_581_593 (QLKPLKTYVDPHT; UniProt P29317 581-593, looked up, fragment) showed Relative phosphorylation (% of highest signal) of -1.0 % of highest signal

With SYK (Homo sapiens) as the test system, VGFR2_1168_1180 (AQQDGKDYIVLPI; UniProt P35968 1168-1180, looked up, fragment) showed Relative phosphorylation (% of highest signal) of 2.7 % of highest signal

* * *

Relative phosphorylation (% of highest signal) overview
# test_system: FGR (Homo sapiens)
# test_summary: PamChip microarray peptide phosphorylation
# experimental_setup: peptide substrate phosphorylated by FGR

Study these solved cases before continuing.
| substance | test_result |
| --- | --- |
| DDR1_506_518 (LLLSNPAYRLLLA; UniProt Q08345 506-518, looked up, fragment) | -6.2 % of highest signal |
| ART_004_EAIYAAPFAKKKXC | 8.3 % of highest signal |

// moving on: another record for Relative phosphorylation (% of highest signal)
Please fill in: Relative phosphorylation (% of highest signal) reported for STAT6_634_646 (MGKDGRGYVPATI; UniProt P42226 634-646, looked up, fragment) = -4.7 % of highest signal

* * *

# test_system: LRRK2 (Homo sapiens)
# Sequence (Q5S007 970-2527 limits assumed, species assumed): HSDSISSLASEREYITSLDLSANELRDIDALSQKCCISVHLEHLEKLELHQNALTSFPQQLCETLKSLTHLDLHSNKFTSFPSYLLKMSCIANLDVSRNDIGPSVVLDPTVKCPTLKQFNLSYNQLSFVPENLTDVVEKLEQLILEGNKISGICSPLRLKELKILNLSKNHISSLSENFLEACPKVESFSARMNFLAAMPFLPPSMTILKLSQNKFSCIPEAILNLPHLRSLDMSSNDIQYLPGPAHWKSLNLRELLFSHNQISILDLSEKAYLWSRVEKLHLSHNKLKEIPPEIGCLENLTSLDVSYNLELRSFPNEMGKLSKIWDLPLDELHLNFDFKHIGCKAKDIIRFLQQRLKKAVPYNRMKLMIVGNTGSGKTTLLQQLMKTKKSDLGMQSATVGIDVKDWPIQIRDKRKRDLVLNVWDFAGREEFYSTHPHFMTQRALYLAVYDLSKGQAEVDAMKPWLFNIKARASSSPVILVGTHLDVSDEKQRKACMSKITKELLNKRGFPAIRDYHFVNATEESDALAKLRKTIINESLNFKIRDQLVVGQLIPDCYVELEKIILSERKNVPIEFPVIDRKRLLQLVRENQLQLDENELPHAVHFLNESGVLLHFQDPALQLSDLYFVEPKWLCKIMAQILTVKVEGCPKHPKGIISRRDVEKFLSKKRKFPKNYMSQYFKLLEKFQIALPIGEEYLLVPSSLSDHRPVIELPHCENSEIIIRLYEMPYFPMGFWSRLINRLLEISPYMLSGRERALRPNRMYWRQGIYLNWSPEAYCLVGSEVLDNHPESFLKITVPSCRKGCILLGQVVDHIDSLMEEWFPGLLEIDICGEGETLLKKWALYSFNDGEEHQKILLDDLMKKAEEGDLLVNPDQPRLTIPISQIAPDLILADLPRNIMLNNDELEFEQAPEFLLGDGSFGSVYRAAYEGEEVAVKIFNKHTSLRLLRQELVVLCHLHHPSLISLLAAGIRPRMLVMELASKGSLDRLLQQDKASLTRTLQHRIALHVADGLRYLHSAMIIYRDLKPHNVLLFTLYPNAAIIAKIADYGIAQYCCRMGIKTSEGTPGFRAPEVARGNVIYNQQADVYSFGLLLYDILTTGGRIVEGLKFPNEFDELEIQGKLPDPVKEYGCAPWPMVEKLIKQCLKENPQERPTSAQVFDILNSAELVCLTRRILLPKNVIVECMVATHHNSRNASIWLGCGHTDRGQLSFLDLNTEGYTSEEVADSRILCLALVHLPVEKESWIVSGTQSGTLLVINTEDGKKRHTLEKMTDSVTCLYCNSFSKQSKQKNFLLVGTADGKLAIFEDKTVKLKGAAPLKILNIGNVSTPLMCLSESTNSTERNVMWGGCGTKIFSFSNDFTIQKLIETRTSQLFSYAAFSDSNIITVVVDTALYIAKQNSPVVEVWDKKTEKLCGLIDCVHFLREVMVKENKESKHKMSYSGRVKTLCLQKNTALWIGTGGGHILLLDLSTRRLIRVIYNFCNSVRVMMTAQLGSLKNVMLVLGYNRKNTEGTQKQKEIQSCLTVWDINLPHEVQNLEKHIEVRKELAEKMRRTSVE
assay_metric: IC50 (nM)
Entry rule: numbers only, all in nM.

With LRRK2 (Homo sapiens) as the test system, C#CCOc1ccc(Nc2ncc(Cl)c(Nc3ccccc3NC(=O)C=C)n2)c(OC)c1 showed IC50 of 50.1

* * *

Residual activity (%) WT Mean overview
# test_system: FER^WT (Homo sapiens)
# test_summary: In vitro TR-FRET kinase assay
# experimental_setup: log[inhibitor] (M) -11
Entry rule: numbers only, all in %.

Study these solved cases before continuing.
| compound | assay_metric | unit_annotation | test_result |
| --- | --- | --- | --- |
| C=CC(=O)Nc1ccccc1Nc1nc(Nc2ccccc2OC)ncc1Cl [Supplementary Figure 8d] | Residual activity (%) WT Mean | % | 116.944 |
| C#CCOc1ccc(Nc2ncc(Cl)c(Nc3ccccc3NC(=O)C=C)n2)c(OC)c1 [Supplementary Figure 8f] | Residual activity (%) WT Mean | % | 111.768 |
| CCC(=O)Nc1ccccc1Nc1nc(Nc2ccccc2OC)ncc1Cl [Supplementary Figure 8e] | Residual activity (%) WT Mean | % | 108.607 |

With FER^WT (Homo sapiens) as the test system, COc1ccccc1Nc1ncc(Cl)c(Nc2ccccc2S(=O)(=O)C(C)C)n1 [Supplementary Figure 8c] showed Residual activity (%) WT Mean of 108.85

* * *

Residual activity (%) WT Mean overview
# test_system: FER^WT (Homo sapiens, UniProt P16591)
# Sequence (P16591 448-820): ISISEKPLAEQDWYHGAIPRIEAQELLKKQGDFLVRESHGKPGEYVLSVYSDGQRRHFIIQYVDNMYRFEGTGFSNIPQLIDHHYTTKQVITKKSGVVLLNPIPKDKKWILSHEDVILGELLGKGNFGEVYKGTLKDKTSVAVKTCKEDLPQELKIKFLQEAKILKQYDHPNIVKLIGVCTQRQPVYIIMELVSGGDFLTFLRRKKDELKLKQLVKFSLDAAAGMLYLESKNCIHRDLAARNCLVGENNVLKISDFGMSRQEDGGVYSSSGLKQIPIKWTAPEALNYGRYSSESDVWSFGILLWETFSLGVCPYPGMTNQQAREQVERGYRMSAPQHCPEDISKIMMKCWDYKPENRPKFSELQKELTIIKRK
# test_summary: In vitro TR-FRET kinase assay
# experimental_setup: log[inhibitor] (M) -10.5229

| compound | test_result |
| --- | --- |
| COc1ccccc1Nc1ncc(Cl)c(Nc2ccccc2S(=O)(=O)C(C)C)n1 [Supplementary Figure 8c] | 105.352% |

Please fill in: Residual activity (%) WT Mean reported for CCC(=O)Nc1ccccc1Nc1nc(Nc2ccccc2OC)ncc1Cl [Supplementary Figure 8e] = 97.8463%

Please fill in: Residual activity (%) WT Mean reported for C#CCOc1ccc(Nc2ncc(Cl)c(Nc3ccccc3NC(=O)C=C)n2)c(OC)c1 [Supplementary Figure 8f] = 90.1497%

Please fill in: Residual activity (%) WT Mean reported for C=CC(=O)Nc1ccccc1Nc1nc(Nc2ccccc2OC)ncc1Cl [Supplementary Figure 8d] = 102.376%

* * *

# test_system: PTK2 (FAK) (Homo sapiens, UniProt Q05397)
# Sequence (Q05397 whole entry, species assumed): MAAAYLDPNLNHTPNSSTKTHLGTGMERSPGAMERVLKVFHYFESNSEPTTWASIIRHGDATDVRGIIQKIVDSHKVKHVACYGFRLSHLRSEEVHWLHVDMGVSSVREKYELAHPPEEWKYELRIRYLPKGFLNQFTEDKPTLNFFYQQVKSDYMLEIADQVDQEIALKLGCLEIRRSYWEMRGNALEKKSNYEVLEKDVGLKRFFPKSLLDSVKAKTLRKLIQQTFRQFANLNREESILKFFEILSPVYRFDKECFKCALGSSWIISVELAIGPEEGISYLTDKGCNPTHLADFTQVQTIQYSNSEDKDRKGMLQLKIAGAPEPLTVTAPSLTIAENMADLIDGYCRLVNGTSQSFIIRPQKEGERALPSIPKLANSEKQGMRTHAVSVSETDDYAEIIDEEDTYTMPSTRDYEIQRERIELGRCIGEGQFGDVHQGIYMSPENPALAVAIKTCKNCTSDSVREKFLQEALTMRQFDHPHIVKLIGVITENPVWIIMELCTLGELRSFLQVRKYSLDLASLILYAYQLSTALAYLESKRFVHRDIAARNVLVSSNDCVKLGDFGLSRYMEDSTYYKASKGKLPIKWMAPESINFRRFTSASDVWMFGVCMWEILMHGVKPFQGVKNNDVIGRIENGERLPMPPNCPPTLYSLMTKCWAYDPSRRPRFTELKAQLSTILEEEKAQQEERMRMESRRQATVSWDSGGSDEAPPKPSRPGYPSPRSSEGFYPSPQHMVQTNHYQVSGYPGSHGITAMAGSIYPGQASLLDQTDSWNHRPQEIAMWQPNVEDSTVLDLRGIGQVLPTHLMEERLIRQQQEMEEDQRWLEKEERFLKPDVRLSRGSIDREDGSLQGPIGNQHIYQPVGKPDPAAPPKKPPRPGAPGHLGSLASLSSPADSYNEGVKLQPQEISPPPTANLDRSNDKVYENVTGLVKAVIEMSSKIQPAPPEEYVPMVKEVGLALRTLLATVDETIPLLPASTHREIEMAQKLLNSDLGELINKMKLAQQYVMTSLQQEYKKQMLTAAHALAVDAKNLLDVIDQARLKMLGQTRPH
assay_metric: IC50 (nM)
Entry rule: numbers only, all in nM.

Please fill in: IC50 reported for C#CCOc1ccc(Nc2ncc(Cl)c(Nc3ccccc3NC(=O)C=C)n2)c(OC)c1 = 398

* * *

# test_system: CLK4 (Homo sapiens)
# Sequence (Q9HAZ1 whole entry, species assumed): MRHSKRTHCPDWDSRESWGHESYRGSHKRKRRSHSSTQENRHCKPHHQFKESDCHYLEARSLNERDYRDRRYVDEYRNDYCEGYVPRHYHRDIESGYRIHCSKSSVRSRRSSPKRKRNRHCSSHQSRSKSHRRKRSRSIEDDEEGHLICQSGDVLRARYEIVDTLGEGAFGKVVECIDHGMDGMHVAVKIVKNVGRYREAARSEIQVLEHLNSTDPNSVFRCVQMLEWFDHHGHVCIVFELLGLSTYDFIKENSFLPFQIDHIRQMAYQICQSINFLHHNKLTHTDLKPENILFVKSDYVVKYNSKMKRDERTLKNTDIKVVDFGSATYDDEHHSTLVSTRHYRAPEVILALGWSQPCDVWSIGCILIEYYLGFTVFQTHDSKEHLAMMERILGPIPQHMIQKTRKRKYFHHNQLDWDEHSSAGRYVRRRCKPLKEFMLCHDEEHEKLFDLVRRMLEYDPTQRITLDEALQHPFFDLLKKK
assay_metric: IC50 (µM)
Entry rule: numbers only, all in µM.

With CLK4 (Homo sapiens) as the test system, C#CCOc1ccc(Nc2ncc(Cl)c(Nc3ccccc3NC(=O)C=C)n2)c(OC)c1 showed IC50 of 1.26

* * *

# test_system: TTK (Homo sapiens, UniProt P33981)
# Sequence (P33981 1-857): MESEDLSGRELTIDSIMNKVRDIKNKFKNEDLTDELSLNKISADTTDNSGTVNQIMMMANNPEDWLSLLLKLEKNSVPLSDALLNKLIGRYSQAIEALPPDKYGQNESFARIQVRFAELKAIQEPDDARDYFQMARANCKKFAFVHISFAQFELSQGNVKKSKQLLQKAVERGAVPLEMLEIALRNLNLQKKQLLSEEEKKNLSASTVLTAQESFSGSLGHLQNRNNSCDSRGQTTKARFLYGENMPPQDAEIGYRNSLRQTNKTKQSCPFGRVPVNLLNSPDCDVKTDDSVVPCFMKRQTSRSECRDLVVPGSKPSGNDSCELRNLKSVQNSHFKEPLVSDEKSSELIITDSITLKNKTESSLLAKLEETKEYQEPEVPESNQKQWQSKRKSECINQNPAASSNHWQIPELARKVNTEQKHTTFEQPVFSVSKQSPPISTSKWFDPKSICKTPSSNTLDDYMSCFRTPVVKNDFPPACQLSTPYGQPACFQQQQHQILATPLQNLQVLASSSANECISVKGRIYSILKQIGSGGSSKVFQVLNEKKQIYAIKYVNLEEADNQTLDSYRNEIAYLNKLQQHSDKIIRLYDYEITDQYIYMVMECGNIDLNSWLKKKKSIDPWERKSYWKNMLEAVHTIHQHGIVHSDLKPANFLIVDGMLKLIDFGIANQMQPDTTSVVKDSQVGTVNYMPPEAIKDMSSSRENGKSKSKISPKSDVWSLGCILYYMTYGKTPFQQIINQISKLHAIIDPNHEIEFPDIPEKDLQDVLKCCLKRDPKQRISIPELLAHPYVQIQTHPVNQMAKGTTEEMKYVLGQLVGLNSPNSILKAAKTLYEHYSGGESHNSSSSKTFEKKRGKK
assay_metric: IC50 (nM)
Entry rule: numbers only, all in nM.

Please fill in: IC50 reported for C#CCOc1ccc(Nc2ncc(Cl)c(Nc3ccccc3NC(=O)C=C)n2)c(OC)c1 = 631

* * *

# test_system: BRAF (Homo sapiens)
# Sequence (P15056 whole entry, species assumed): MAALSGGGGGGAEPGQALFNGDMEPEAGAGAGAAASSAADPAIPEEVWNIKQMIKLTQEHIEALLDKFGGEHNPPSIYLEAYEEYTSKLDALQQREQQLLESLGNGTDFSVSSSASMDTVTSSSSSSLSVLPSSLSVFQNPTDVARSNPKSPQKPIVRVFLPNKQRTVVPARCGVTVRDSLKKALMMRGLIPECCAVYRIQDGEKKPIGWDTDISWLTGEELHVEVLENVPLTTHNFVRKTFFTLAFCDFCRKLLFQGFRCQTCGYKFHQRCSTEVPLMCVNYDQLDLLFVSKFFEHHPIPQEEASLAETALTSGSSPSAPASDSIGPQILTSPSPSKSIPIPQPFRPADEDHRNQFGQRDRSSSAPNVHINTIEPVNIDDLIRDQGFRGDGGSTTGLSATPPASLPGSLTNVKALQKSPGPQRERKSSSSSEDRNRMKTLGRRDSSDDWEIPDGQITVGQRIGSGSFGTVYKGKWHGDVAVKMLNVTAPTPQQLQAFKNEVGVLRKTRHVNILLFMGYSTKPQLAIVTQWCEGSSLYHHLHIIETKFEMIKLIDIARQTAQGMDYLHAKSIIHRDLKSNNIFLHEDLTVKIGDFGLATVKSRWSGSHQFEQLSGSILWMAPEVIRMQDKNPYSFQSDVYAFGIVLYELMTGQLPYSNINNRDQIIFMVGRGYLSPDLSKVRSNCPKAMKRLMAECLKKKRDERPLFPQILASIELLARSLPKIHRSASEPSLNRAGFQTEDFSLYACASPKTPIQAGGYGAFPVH
assay_metric: IC50 (nM)
Entry rule: numbers only, all in nM.

With BRAF (Homo sapiens) as the test system, C#CCOc1ccc(Nc2ncc(Cl)c(Nc3ccccc3NC(=O)C=C)n2)c(OC)c1 [Compound 6] showed IC50 of 100

* * *

# test_system: SYK (Homo sapiens, UniProt P43405)
# test_summary: PamChip microarray peptide phosphorylation
# experimental_setup: peptide substrate phosphorylated by SYK
Relative phosphorylation (% of highest signal) overview

| substance | test_result |
| --- | --- |
| AMPE_5_17 (EREGSKRYCIQTK; UniProt Q07075 5-17, looked up, fragment) | -1.8 % of highest signal |
| DDR1_506_518 (LLLSNPAYRLLLA; UniProt Q08345 506-518, looked up, fragment) | -3.9 % of highest signal |
| MK01_198_210 (IMLNSKGYTKSID; UniProt P28482 198-210, looked up, fragment) | -1.2 % of highest signal |

With SYK (Homo sapiens, UniProt P43405) as the test system, VGFR1_1162_1174 (VQQDGKDYIPINA; UniProt P17948 1162-1174, looked up, fragment) showed Relative phosphorylation (% of highest signal) of 1.8 % of highest signal

With SYK (Homo sapiens, UniProt P43405) as the test system, ART_004_EAIYAAPFAKKKXC showed Relative phosphorylation (% of highest signal) of 3.2 % of highest signal

With SYK (Homo sapiens, UniProt P43405) as the test system, VGFR1_1235_1247 (ATSMFDDYQGDSS; UniProt P17948 1235-1247, looked up, fragment) showed Relative phosphorylation (% of highest signal) of 17.6 % of highest signal

With SYK (Homo sapiens, UniProt P43405) as the test system, VGFR2_1207_1219_C1208S (VSDPKFHYDNTAG; UniProt P35968 1207-1219, looked up, variant C1208S) showed Relative phosphorylation (% of highest signal) of -1.4 % of highest signal

With SYK (Homo sapiens, UniProt P43405) as the test system, VGFR2_944_956 (RFRQGKDYVGAIP; UniProt P35968 944-956, looked up, fragment) showed Relative phosphorylation (% of highest signal) of 0.9 % of highest signal
